- Measured target: human delta-like ligand 3 (DLL3) on SHP77 cells (human) (UniProt Q9NYJ7)
- Sequence (Q9NYJ7 27-618, stated change not applied): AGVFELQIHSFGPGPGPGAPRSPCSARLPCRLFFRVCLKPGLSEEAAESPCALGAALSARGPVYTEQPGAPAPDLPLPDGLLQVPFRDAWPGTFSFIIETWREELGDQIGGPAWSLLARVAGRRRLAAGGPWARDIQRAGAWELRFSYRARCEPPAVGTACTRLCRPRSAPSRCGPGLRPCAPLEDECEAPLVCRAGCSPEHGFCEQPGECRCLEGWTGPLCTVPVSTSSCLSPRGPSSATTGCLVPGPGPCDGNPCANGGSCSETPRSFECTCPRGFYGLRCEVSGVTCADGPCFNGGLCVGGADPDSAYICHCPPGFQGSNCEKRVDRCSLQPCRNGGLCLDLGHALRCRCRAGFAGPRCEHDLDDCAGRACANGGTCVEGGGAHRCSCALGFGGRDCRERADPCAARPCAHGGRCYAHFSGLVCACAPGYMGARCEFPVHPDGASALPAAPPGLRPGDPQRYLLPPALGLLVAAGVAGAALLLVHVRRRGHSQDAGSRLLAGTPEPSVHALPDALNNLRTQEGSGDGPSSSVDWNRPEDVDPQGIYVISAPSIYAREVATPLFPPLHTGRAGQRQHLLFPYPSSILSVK
- Test protocol: FACS on SHP77 cells
Please respond with Criterion met when measured MFI at 0.16 nM is strictly beneath 900 MFI, and with Criterion not met in all other cases.

Hab008L1H2a-hFc (scFv, part only; not given: VL-VH linker and human IgG1 Fc, V domains shown, not shown: another chain or arm of the molecule; a dimerising Fc or GST; small tags and cut ends) VL: DIQMTQSPSSLSASVGDRVTITCKASQNVGTAVAWYQQKPGKSPKLLIFSASIRYTGVPSRFSGSGSGTDFTLTISSLQPEDFATYYCQQYSSSPYTFGGGTKVEIK VH: EVQLVQSGAEVKKPGASVKVSCKASGYTFTDYYMNWVRQAPGQRLEWMGIINPYNSGTSYNQKFRGRVTLTVDKSASTAYMELSSLRSEDTAVYYCSRYDYDYDVEGAMDYWGQGTTVTVSS; Criterion met

Query block: Strictly below 900 MFI: is that where MFI at 0.16 nM of Hab008L3H5-hFc (scFv, part only; not given: scFv linker and human IgG1 Fc, V domains shown, not shown: another chain or arm of the molecule; a dimerising Fc or GST; small tags and cut ends) VL: DIVMTQSPDSLAVSLGERATINCKASQNVGTAVAWYQQKPGQSPKLLIFSASIRYTGVPDRFSGSGSGTDFTLTISSLQAEDVAVYYCQQYSSSPYTFGGGTKVEIK VH: EVQLVQSGAEVKKPGASVKVSCKASGYTFTDYYMNWVRRAPGQRLEWMGIINPYNGGTSYNQKFRGRVTITVDKSASTAYMELSSLRSEDTAVYYCSRYDYDYDVEGAMDYWGQGTTVTVSS sits?
Result block: Criterion met

Query block: # TODO verify MFI at 0.16 nM < 900 MFI strictly for this binder: Hab014VL2VH1-hFc (scFv, part only; not given: scFv linker and human IgG1 Fc, V domains shown, not shown: another chain or arm of the molecule; a dimerising Fc or GST; small tags and cut ends) VL: DIQMTQSPSSLSASVGDRVTITCKASEDIYNRLAWYQQKPGKVPKLLISGATSLETGVPSRFSGSGSGKDFTLTISSLQPEDVATYYCQQYWSLPWTFGGGTKVEIK VH: EVQLVQSGAEVKKPGASVKVSCKASGYTFTDYYMNWVRQAPGQRLEWMGDINPNHGDTGYNQKFTGRVTITVDKSASTAYMELSSLRSEDTAVYYCARNFFYYGTTYGWYFDVWGQGTTVTVSS
Result block: Criterion met

Query block: Item Hab006VL1VH4-hFc (scFv, part only; not given: VL-VH linker and human IgG1 Fc, V domains shown, not shown: another chain or arm of the molecule; a dimerising Fc or GST; small tags and cut ends) VL: DIQMTQSPSSLSASVGDRVTITCRATKSISKYLAWYQQKPGKAPKLLIFSGSTLQSGVPSRFSGSGSGTDFTLTISSLQPEDFATYYCQQHHEYPYTFGGGTKVEIK VH: EVQLVQSGAEVKKPGASVKVSCKASGYTFTSYWMHWVRQAPGQRLEWMGVIDPSDSLANYNQEFKGRVTLTVDTSSSTAYMELSSLRSEDTAVYYCARDSTVVAPMDYWGQGTTVTVSS : MFI at 0.16 nM beneath 900 MFI, strictly?
Result block: Criterion not met

Query block: Given the entry Hab006VL4VH1-hFc (scFv, part only; not given: scFv linker and human IgG1 Fc, V domains shown, not shown: another chain or arm of the molecule; a dimerising Fc or GST; small tags and cut ends) VL: DIVMTQSPDSLAVSLGERATINCRATKSISKYLAWYQQKPGQTNKLLIFSGSTLQSGVPDRFSGSGSGTDFTLTISSLQAEDVAVYYCQQHHEYPYTFGGGTKVEIK VH: EVQLVQSGAEVKKPGASVKVSCKASGYTFTSYWMHWVRQAPGQRLEWMGVIDPSDSLANYNQEFKGRVTITVDTSASTAYMELSSLRSEDTAVYYCARDSTVVAPMDYWGQGTTVTVSS , would its reported MFI at 0.16 nM be below 900 MFI?
Result block: Criterion not met

Query block: Hello, is MFI at 0.16 nM of the following binder strictly smaller than 900 MFI? Hab006VL4VH2-hFc (scFv, part only; not given: scFv linker and human IgG1 Fc, V domains shown, not shown: another chain or arm of the molecule; a dimerising Fc or GST; small tags and cut ends) VL: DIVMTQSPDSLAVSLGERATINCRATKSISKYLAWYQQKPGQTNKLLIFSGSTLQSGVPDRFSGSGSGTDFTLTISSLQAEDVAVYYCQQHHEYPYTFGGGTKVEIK VH: EVQLVQSGAEVKKPGASVKVSCKASGYTFTSYWMHWVRQAPGQRLEWMGVIDPSDSLANYNQEFKGRVTLTVDTSASTAYMELSSLRSEDTAVYYCARDSTVVAPMDYWGQGTTVTVSS
Result block: Criterion not met
